# study_system: CLK1, CLK2, and CLK4
# experimental_details: radiometric kinase assay, summary for the other CLKs
# particulars: Table 2; read-out: inhibition of CLK1, CLK2, and CLK4 (best value)
result_type: pIC50
pIC50 (log units): -log10 of the concentration in mol/L.

For Cc1ccc(-n2cc(COc3cccc4cnc(Nc5cc(Cl)cc(-c6cccc(C(=O)O)c6)c5)nc34)nn2)c([N+](=O)[O-])c1 [Compound 13b] the compound record lists pIC50 as 7.22

---

# study_system: Hs_HASPIN (Homo sapiens)
# Sequence (Q8TF76 1-798): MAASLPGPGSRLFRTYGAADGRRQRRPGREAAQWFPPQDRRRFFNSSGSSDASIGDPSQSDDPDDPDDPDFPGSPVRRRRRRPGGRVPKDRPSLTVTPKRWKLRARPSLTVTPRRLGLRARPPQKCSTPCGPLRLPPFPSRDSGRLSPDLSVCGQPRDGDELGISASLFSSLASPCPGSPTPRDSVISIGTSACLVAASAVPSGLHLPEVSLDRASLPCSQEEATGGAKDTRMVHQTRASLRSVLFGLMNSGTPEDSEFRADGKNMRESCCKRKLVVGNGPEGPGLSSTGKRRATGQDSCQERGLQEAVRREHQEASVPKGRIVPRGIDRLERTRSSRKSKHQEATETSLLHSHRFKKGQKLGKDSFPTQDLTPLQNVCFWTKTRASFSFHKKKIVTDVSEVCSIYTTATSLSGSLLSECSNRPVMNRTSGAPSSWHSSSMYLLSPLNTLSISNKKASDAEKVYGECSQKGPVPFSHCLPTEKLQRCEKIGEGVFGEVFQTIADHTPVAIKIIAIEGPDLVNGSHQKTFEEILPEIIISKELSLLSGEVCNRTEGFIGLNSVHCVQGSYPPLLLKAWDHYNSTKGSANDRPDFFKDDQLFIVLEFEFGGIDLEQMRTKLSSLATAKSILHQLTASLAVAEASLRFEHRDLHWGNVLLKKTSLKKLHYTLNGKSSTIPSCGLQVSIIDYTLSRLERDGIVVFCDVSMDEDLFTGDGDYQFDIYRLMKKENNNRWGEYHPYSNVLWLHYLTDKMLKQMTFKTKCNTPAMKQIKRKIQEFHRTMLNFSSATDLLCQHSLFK
# experimental_details: primary screening, short panel of mammalian kinases
# Format: biochemical
# particulars: compound 1 μM; ATP 10 µM; means, n = 2; read-out: Residual kinase activity Hs_HASPIN
Reported remaining activity at 1 µM values are given for each entry in this list.
// units = %; emit number, no label

Reported remaining activity at 1 µM of COC(=O)c1cccc(-c2cc(Cl)cc(Nc3ncc4cccc(OCc5cn(-c6ccc(C)cc6[N+](=O)[O-])nn5)c4n3)c2)c1 [Compound 12b] : 47

GET /value?item= Cc1ccc(-n2cc(COc3cccc4cnc(Nc5cccc(-c6ccc(C(=O)O)cc6)c5)nc34)nn2)c([N+](=O)[O-])c1 [Compound 10a] &field=remaining activity at 1 µM returns 93

remaining activity at 1 µM reported for this compound Cc1ccc(-n2cc(COc3cccc4cnc(Nc5cc(Cl)cc(-c6cccc(C(=O)O)c6)c5)nc34)nn2)c([N+](=O)[O-])c1 [Compound 13b] : 74
